- Assay target: Fuc(a1-2)Gal(b1-4)[Fuc(a1-3)]GlcNAc
- Method summary: glycan array binding signal (z-score within array); higher = stronger binding
- Experimental conditions: glycan notation: IUPAC condensed, linker removed
About 410 targets per protein were measured; listed, in parts, are those with the strongest signals and a random draw of the rest.
glycan array binding signal (z-score) of 0.02 or higher: y. Under 0.02: n.

Use the examples below as a reference point.
- Binder: "GH95CBM (Clostridium perfringens) (protein) EKVAVETSVYLSELEWKSASTGYGEIQKDASCDGNTITLKGENGEKVSYDKGIGTHAHSEIVYSLEGLDYYDYFETFVGVDQEMAGTVASISFEVYLDNEKVFDSGLMTGDTTQKHVKVPIAGKNTLKLVVKDGGDSIGSDHGSFGDAKLT"
  Qualitative label: "n"
- Binder: "CBM40 CPF071 (Clostridium perfringens) (protein) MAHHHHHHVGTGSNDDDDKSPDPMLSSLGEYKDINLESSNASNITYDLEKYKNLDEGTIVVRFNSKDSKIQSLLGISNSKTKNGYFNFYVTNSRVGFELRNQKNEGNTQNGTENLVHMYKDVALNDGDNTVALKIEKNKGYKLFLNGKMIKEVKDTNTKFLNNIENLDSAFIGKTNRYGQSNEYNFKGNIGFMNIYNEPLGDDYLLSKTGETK"
  Qualitative label: "y"
- Binder: "HA-11100 (Pseudomonas aeruginosa), Q02G51_PSEAB (protein) QFNPNEIKISQQGKTTLIDQSTQRAIINWKGFDVSADEAVRFNQPGVTSSTLNRVTAGQESVIAGRISAPGQVIIYNSNGVVFSGSAKVDVGSLITTTANISDEHFRQGKLIFDQPGNPDARIVNDGSISVAEKGLAAFVAPSVANNGVINARLGTVAMAAGNAATIDLYG"
  Qualitative label: "n"
- Binder: "SRS6 (Toxoplasma gondii), Q9NH12 (protein) MARTGSMQQRRGGFQTTARMLMAVCVSGVLLLSSGPSSANKLTEGQQNQNSGPGAATQEGPTIEGAVAKCVLKTTAAENGSSRAKNTTGLTLSKENLVVSLQCSGEKNAIVPKDQKKVCSAAPNAKVADCKGADTDKQVTLKSLLGTSGDIQWEKTIVSTDNKGEVMTLKIKESELPLFDKAFFVGCEEDKAQTRTSQATECKVNVSVKARPSTVGENNVVTCAYGKDSNPRPLEVEMSADNDTLTIDCGTDGSLKPTKYTEEFCVTDNSQLESCTTKKFSEILPTFLPSWWVSDSQNGSAKLTIPESGFPEEQQQFRLGCVPKKTTQSPQANPSVKTEKEEGAQNTDASTSNCSVIVTVKASNFSSLASSIAPTAAVAGGAAALTGFLVGSF"
  Qualitative label: "n"

I'd appreciate it if you could say whether PLU (Photorhabdus luminiscence) (protein) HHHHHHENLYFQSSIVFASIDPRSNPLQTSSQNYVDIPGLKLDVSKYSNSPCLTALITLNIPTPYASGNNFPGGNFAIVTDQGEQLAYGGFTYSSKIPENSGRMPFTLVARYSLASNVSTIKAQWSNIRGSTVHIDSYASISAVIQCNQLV has glycan array binding signal (z-score) at least equal to 0.02.
y
